TESTED_ON: S100P
MEASUREMENT_NOTES: FP; competitive
OBSERVATION_TYPE: pKd
Please express pKd as -log10 of the molar concentration.

Return pKd for the following binder: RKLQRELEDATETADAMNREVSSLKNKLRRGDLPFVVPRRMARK [NMIIA (1894-1937) peptide]
6.85

Given TRTKIDWNKILS [CapZ (265-276) peptide] , respond with its pKd.
5.39

Give recorded pKd. MAATAAAVVAEEDTELRDLLVQTLENSGVLNRIKAELRAAVFLALEEQ [FOP (1-48) peptide]
7.18
